study_target: Voltage-gated inwardly rectifying potassium channel KCNH2 (Homo sapiens)
test_name: hERG protection against dofetilide inhibition, confirmation, cell-based, thallium flux, duplicate retest, dofetilide IC70 (AID 1835)
experimental_parameters: hERG cell line, FluxOR thallium flux, dofetilide-blocked; at 10 µM; hits give high values
In all, about 2,400 compounds went through this assay and about 750 (31%) were called active. The list shows a part of the results.
measured_endpoint: activity increase over dofetilide control, less the hit threshold

Here is how some compounds turned out for activity increase over dofetilide control, less the hit threshold.
smiles_record=O=C(COc1ccccc1)Nc1nnc(-c2ccc(Cl)s2)o1 recorded_value="-9% (inactive)"
smiles_record=COc1cc(Cl)cc(C(c2c(C(=O)O)[nH]c3ccccc23)c2c(C(=O)O)[nH]c3ccccc23)c1O recorded_value="-20% (inactive)"
smiles_record=Cc1ccccc1C(=O)NNC(=O)c1cccc([N+](=O)[O-])c1 recorded_value="-31% (inactive)"

Please give measured activity increase over dofetilide control, less the hit threshold of the following entry: `CCCn1c(SCN2C(=O)c3ccccc3C2=O)nc2cc(Cl)ccc2c1=O`
20% (active)

Please give measured activity increase over dofetilide control, less the hit threshold of the following entry: `CCOc1ccc(NC(=O)c2ccc(NC(=O)CSc3nc4ccccc4c(=O)[nH]3)cc2)cc1`
-17% (inactive)

Please give measured activity increase over dofetilide control, less the hit threshold of the following entry: `Cc1ccc2c(CN3CCOCC3)cc(=O)oc2c1`
-14% (inactive)

Please give measured activity increase over dofetilide control, less the hit threshold of the following entry: `C/C(=N\NC(=O)COc1ccc(C)cc1C(C)C)c1ccc(-n2ccnc2)cc1`
6% (active)

Please give measured activity increase over dofetilide control, less the hit threshold of the following entry: `CC(=O)c1ccc2c3c(cccc13)CC2`
-7% (inactive)

Please give measured activity increase over dofetilide control, less the hit threshold of the following entry: `Cc1oc2cc(O)ccc2c(=O)c1N1C(=O)c2ccccc2C1=O`
-4% (inactive)

Please give measured activity increase over dofetilide control, less the hit threshold of the following entry: `Nc1ncnc(Oc2cccc3cccnc23)c1[N+](=O)[O-]`
-12% (inactive)

Please give measured activity increase over dofetilide control, less the hit threshold of the following entry: `CC(C)CCn1c(SCC(=O)NC2CC2)nc2cc(Cl)ccc2c1=O`
-13% (inactive)

Please give measured activity increase over dofetilide control, less the hit threshold of the following entry: `Cn1nc(C(=O)Nc2ccc3c(c2)OCO3)c2ccccc2c1=O`
-16% (inactive)

Please give measured activity increase over dofetilide control, less the hit threshold of the following entry: `COc1nnc(-c2ccc(C)c(S(=O)(=O)NC(C)(C)CO)c2)c2ccccc12`
-17% (inactive)

Please give measured activity increase over dofetilide control, less the hit threshold of the following entry: `O=C(NCc1cccnc1)Nc1ccc2c(c1)OCO2`
-19% (inactive)

The reported measurements were obtained from PubChem BioAssay AID1835.
